Catalogue of MIC values
- Test system: Mycobacterium tuberculosis
- Protocol: Antimicrobial activity against Mycobacterium tuberculosis after 20 hrs by broth microdilution method
- Assay type: functional
Measured Property: MIC (µg/mL)

Compound	Measured Property	Bound Operator	Number
CO[C@H]1/C=C/O[C@@]2(C)Oc3c(C)c(O)c4c(O)c(c(/C=N/N5CCN(C)CC5)c(O)c4c3C2=O)NC(=O)/C(C)=C\C=C\[C@H](C)[C@H](O)[C@@H](C)[C@@H](O)[C@@H](C)[C@H](OC(C)=O)[C@@H]1C [RIFAMPIN]	MIC	=	0.25
CO/N=c1\[nH]cnc2c1[n+](C/C=C(\C)CC/C=C(\C)CC/C=C(\C)CCC=C(C)C)cn2C(C)C	MIC	=	1.56
C/C(=C\C[n+]1cn(C)c2ncnc(N)c21)CCCC(C)CCCC(C)CCCC(C)C (stereo not given)	MIC	=	6.25
C=CCn1c[n+](C/C=C(\C)CC/C=C(\C)CC/C=C(\C)CCC=C(C)C)c2/c(=N/OC)[nH]cnc21	MIC	=	3.13
C/N=c1\ncn(C)c2ncn(C/C=C(\C)CC/C=C(\C)CC/C=C(\C)CCC=C(C)C)c12	MIC	=	3.13
CC(C)=CCC/C(C)=C/CC/C(C)=C/CC/C(C)=C/C[n+]1cn(C)c2nc[nH]/c(=N\OCc3ccccc3)c21	MIC	=	3.13
CO/N=c1\[nH]cnc2c1[n+](C/C=C(\C)CC/C=C(\C)CC/C=C(\C)CCC=C(C)C)cn2CCC#N	MIC	>	6.25
CO/N=c1\[nH]cnc2c1[n+](C/C=C(\C)CC/C=C(\C)CC/C=C(\C)CCC=C(C)C)cn2C(c1ccccc1)c1ccccc1	MIC	=	3.13
CC(C)=CCC/C(C)=C/CC/C(C)=C/CC/C(C)=C/Cn1cnc2ncnc(N)c21	MIC	=	1.56
CO/N=c1\[nH]cnc2c1[n+](C/C=C(\C)CC/C=C(\C)CCC=C(C)C)cn2C	MIC	=	3.13
CC(C)=CCC/C(C)=C/CC/C(C)=C/CC/C(C)=C/Cn1cnc2c1C(=N)N(C)CN2C	MIC	=	3.13
CC(C)=CCC/C(C)=C/CC/C(C)=C/CC/C(C)=C/C[n+]1cn(C)c2nc[nH]/c(=N\OC(C)(C)C)c21	MIC	=	3.13
CO/N=c1\[nH]cnc2c1[n+](C/C=C(\C)CC/C=C(\C)CC/C=C(\C)CCC=C(C)C)cn2Cc1ccccc1	MIC	=	1.56
CO/N=c1\[nH]cnc2c1[n+](C/C=C(\C)CC/C=C(/C)CCC=C(C)C)cn2C	MIC	=	3.13
CC(C)=CCC/C(C)=C\CC/C(C)=C/C[n+]1cn(C)c2nc[nH]/c(=N\OCc3ccccc3)c21	MIC	=	3.13

* * *

Entries and their pIC50 values follow.
- Protocol: Cytotoxicity against CEM/s cells
- Type: functional, cell-based
- Applied Conditions: Homo sapiens
pIC50: −log10 of the molar value.
Measured Property: pIC50

Compound	Bound Operator	Number
C/N=c1\ncn(C)c2ncn(C/C=C(\C)CC/C=C(\C)CC/C=C(\C)CCC=C(C)C)c12	<	4.10
CO/N=c1\[nH]cnc2c1[n+](Cc1ccccc1)cn2C	<	4.10
CC(C)=CCC/C(C)=C/CC/C(C)=C/CC/C(C)=C/Cn1cnc2c1c(=N)ncn2C	=	5.11
CO/N=c1\[nH]cnc2c1[n+](C/C=C(\C)CC/C=C(\C)CC/C=C(\C)CCC=C(C)C)cn2C(C)C	=	5.69
C/C(=C\C[n+]1cn(C)c2nc[nH]/c(=N\OCc3ccccc3)c21)CCCC(C)CCCC(C)CCCC(C)C (stereo not given)	=	5.20
C=CCn1c[n+](C/C=C(\C)CC/C=C(\C)CC/C=C(\C)CCC=C(C)C)c2/c(=N/OC)[nH]cnc21	=	5.53
CC(C)=CCC/C(C)=C/CC/C(C)=C/CC/C(C)=C/Cn1cnc2ncnc(Cl)c21	=	5.17
CC(C)=CCC/C(C)=C/CC/C(C)=C/CC/C(C)=C/C[n+]1cnc2c(ncn2C)c1N.[Br-]	=	4.68
CO/N=c1\[nH]cnc2c1[n+](C/C=C(\C)CC/C=C(\C)CCC=C(C)C)cn2C	=	5.94
CC(C)=CCC/C(C)=C/CC/C(C)=C/CC/C(C)=C/Cn1cnc2c1C(=N)NCN2C	=	4.66
CC(C)=CCC/C(C)=C/CC/C(C)=C/CC/C(C)=C/Cn1cnc2c1C(=N)N(C)CN2C	=	5.50
CC(C)=CCC/C(C)=C/CC/C(C)=C/CC/C(C)=C/C[n+]1cn(C(c2ccccc2)c2ccccc2)c2nc[nH]/c(=N\OCc3ccccc3)c21	=	5.04
CO/N=c1\[nH]cnc2c1[n+](C/C=C(\C)CC/C=C(/C)CCC=C(C)C)cn2C	=	5.91
CC(C)=CCC/C(C)=C/CC/C(C)=C/CC/C(C)=C/C[n+]1cn(C)c2ncnc(N)c21	=	5.51
CO/N=c1\[nH]cnc2c1[n+](C/C=C(\C)CC/C=C(\C)CC/C=C(\C)CCC=C(C)C)cn2C	=	5.72
CC(C)=CCC/C(C)=C/CC/C(C)=C/CC/C(C)=C/Cn1cnc2ncnc(N)c21	=	5.54
Cn1c[n+](Cc2ccccc2)c2c(N)ncnc21.[Cl-]	<	4.10
CO/N=c1\[nH]cnc2c1[n+](C/C=C(\C)CC/C=C(\C)CC/C=C(\C)CCC=C(C)C)cn2C(c1ccccc1)c1ccccc1	=	5.45
CC(C)=CCC/C(C)=C/CC/C(C)=C/CC/C(C)=C/C[n+]1cn(CCC#N)c2nc[nH]/c(=N\OCc3ccccc3)c21	=	4.72
CO/N=c1\[nH]cnc2c1[n+](C/C=C(\C)CC/C=C(\C)CC/C=C(\C)CCC=C(C)C)cn2CCC#N	=	5.27
CC(C)=CCC/C(C)=C/CC/C(C)=C/CC/C(C)=C/Cn1cnc2nc[nH]/c(=N\OCc3ccccc3)c21	=	4.69
CO/N=c1\[nH]cnc2c1[n+](C/C=C(\C)CCCC(C)CCCC(C)CCCC(C)C)cn2C (stereo not given)	=	5.10
CC(C)=CCC/C(C)=C/CC/C(C)=C/C[n+]1cn(C)c2ncnc(N)c21.[Cl-]	<	4.10
C=CC[n+]1cn(C)c2nc[nH]/c(=N\OC)c21	<	4.10
CO/N=c1\[nH]cnc2c1[n+](C/C=C(\C)CCC=C(C)C)cn2C	=	4.56
